- Measured on: T1, biotinylated B7-H3 (B7-H3b), immune checkpoint protein
- T1 construct: also called biotin immobilized B7-H3; streptavidin immobilized B7-H3
- T1 sequence (Q5ZPR3 whole entry, species assumed, looked up): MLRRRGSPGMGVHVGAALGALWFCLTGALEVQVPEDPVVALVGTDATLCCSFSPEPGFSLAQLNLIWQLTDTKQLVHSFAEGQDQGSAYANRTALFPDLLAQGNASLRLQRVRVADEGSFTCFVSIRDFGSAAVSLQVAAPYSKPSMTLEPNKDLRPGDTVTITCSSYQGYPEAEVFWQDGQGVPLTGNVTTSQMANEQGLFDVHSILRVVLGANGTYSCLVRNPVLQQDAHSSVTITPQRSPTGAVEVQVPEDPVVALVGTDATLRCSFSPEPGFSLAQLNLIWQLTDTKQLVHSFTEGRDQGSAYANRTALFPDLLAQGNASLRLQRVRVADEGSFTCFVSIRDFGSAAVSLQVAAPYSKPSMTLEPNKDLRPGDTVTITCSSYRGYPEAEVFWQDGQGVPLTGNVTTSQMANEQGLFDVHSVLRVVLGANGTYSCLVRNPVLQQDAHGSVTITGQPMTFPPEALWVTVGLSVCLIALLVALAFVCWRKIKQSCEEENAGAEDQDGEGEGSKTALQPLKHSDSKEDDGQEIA
- Experiment summary: JP5 alanine mutant library in mRNA display: background screen on beads, then selection on biotinylated B7-H3; NGS, enrichment in the selection over the input library
- Source text: FIGS. 17A-17B. JP5 alanine mutant library design and screen. (FIG. 17A) Each library member with the parent JP5 sequence on the top. JP5 was mutated at each residue to an Alanine. All library members, and JP5, were screened first against background components (magnetic beads) to remove nonspecific binders and then against biotinylated B7-H3 (see FIG. 14B). […] A value of >1 indicates stronger enrichment in the selection, whereas a value<1 indicates a stronger enrichment in the input library. […]
Bridges are numbered along the chain shown (N, C = ends).
Endpoint label: SELECTION/INPUT

[A] Ac-CWTARDINGTRC-NH2 (bridge 1-12; also: bracket C1-C12, bond type not given here, Member of the JP5 alanine mutant library; also called JP5 alanine mutant 3) [AM3]
[B] Ac-CWTIRDINGTAC-NH2 (bridge 1-12; also: bracket C1-C12, bond type not given here, Member of the JP5 alanine mutant library; also called JP5 alanine mutant 10) [AM10]
Q: Could you kindly indicate whether A or B has the higher SELECTION/INPUT value? Choose, then provide that item's label.
Ans: B
